Taken from patent US20250186597A1.

For each record, write down the corresponding EC50, HEK-Blue IL18R reporter assay.
# subject-of-test: T1, IL-18R on HEK-Blue IL18R reporter cells (InvivoGen, #hkb-hmi118) (UniProt Q13478 19-541; O95256 20-599, limits assumed)
# T1 sequence (looked up) 1: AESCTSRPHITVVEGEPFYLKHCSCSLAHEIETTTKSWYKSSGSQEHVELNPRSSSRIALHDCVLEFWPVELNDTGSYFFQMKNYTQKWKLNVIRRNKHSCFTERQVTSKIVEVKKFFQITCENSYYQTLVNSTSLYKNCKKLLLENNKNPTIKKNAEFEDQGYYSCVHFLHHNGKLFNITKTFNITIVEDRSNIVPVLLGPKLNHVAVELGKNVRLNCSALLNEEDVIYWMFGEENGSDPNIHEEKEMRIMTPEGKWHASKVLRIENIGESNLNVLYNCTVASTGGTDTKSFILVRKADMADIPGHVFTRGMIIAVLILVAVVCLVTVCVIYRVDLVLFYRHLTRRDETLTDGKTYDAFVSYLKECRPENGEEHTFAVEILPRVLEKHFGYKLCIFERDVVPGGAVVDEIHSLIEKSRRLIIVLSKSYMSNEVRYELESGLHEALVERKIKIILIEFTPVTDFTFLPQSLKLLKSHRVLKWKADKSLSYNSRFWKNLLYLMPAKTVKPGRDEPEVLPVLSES
# T1 sequence (looked up) 2: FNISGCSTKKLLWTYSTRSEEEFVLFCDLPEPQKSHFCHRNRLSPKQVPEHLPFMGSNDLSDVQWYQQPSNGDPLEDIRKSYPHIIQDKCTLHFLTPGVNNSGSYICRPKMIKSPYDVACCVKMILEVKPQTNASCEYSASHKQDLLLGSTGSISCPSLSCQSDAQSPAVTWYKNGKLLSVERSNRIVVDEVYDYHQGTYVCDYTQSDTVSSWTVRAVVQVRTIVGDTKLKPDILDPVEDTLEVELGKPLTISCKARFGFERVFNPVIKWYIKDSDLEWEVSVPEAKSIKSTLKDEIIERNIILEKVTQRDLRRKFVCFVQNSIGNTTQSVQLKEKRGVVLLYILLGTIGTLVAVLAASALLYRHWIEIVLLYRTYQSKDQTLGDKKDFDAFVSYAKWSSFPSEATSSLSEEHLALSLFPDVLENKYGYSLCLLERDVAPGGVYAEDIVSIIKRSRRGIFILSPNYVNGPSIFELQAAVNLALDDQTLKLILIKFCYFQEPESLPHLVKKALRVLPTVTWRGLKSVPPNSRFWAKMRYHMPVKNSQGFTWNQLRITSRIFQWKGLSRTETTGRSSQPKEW
# test-summary: cell-based or functional assay
One number for each entry, in pM.

Consider the reported EC50, HEK-Blue IL18R reporter assay for these binders:
IL-18 polypeptide C153 (V11I, D37A, C38A, K53A, C76A, C127A) (ligand) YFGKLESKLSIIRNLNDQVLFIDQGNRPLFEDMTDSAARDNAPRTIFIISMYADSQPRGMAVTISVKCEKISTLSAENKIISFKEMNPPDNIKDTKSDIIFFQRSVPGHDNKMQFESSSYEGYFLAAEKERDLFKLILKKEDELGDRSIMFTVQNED = 14.1
IL-18 polypeptide of SEQ ID NO: 50 (E06K, K53A, T63A) (ligand) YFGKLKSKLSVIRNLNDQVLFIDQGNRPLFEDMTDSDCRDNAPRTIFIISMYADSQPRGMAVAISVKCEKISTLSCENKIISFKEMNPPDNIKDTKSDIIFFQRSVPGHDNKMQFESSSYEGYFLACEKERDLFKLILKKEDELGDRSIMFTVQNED = 1.77

(Q) Data request, read-out EC50, HEK-Blue IL18R reporter assay, for IL-18 polypeptide C168 (V11I, C38A, C76A, S105K, C127A) (ligand) YFGKLESKLSIIRNLNDQVLFIDQGNRPLFEDMTDSDARDNAPRTIFIISMYKDSQPRGMAVTISVKCEKISTLSAENKIISFKEMNPPDNIKDTKSDIIFFQRKVPGHDNKMQFESSSYEGYFLAAEKERDLFKLILKKEDELGDRSIMFTVQNED
(A) 7.73
